- System: 454973-116-R2-J3-PDC complex spheroid viability
- PROTOCOL_SUMMARY: Anticancer human tumor 454973-116-R2-J3-PDC patient-derived pancreatic carcinoma cell line growth inhibition [POLQ]
- RECORDED_CONDITIONS: second compound 10 µM; first compound 0.1 µM; stronger effect = lower value
OBSERVATION_TYPE: viability, T/C

CC[C@@]1(O)C(=O)OCc2c1cc1n(c2=O)Cc2cc3c(CN(C)C)c(O)ccc3nc2-1 + Cc1cccc(N(C)C(=O)C2C(O)CCN2c2nc(C)cc(C(F)(F)F)c2C#N)c1 : 22.6%

Ask | Requested read-out: viability, T/C. Entry: CC1COCCN1c1cc(-c2ccnn2C)c2ccnc(-c3ccn[nH]3)c2n1 (stereo not drawn) + COC1C(OC(N)=O)C(O)C(Oc2ccc3c(O)c(NC(=O)c4ccc(O)c(CC=C(C)C)c4)c(=O)oc3c2C)OC1(C)C
Reply | 70.8%

Ask | Also CCc1cc2c(N3CCc4c(cc(Cn5ccnc5)cc4-c4cn(C)nc4C(F)(F)F)C3=O)ccnc2c(OC)n1 + Nc1ccc(C#CCN(C(=O)Cc2ncc(C(F)(F)F)cc2C(F)(F)F)c2ccc(F)cc2)nn1 , if possible.
Reply | 114%

----------
- Tested on: 454973-116-R2-J3-PDC complex spheroid viability
- PROTOCOL_SUMMARY: Anticancer human tumor 454973-116-R2-J3-PDC cell line growth inhibition [POLQ];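 note: spheroids exposed to drugs for seven days before measurement; percent viability relative to DMSO vehicle control wells taken as 100%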
- RECORDED_CONDITIONS: second compound 0.1 µM; first compound 0.1 µM; stronger effect = lower value
Entries and their measured viability, T/C follow.
Your answer is read as %, so omit the unit and give the number.

Examples with answers:
COc1cc2cc(C(=O)CCC(=O)O)sc2cc1OC + Cc1cccc(N(C)C(=O)C2C(O)CCN2c2nc(C)cc(C(F)(F)F)c2C#N)c1 : 98.1
C#Cc1c(F)ccc2cc(O)cc(-c3ncc4c(N5CC6CCC(C5)N6)nc(OCC56CCCN5CC(F)C6)nc4c3F)c12 (stereo not drawn) + COC1C(OC(N)=O)C(O)C(Oc2ccc3c(O)c(NC(=O)c4ccc(O)c(CC=C(C)C)c4)c(=O)oc3c2C)OC1(C)C : 55.6

Attention now turns to another entry.
Ask | Value lookup for viability, T/C; key = C=CC(=O)N1CCN(c2nc(=O)n(-c3c(C)ccnc3C(C)C)c3nc(-c4c(O)cccc4F)c(F)cc23)C(C)C1 (stereo not drawn) + Nc1ccc(C#CCN(C(=O)Cc2ncc(C(F)(F)F)cc2C(F)(F)F)c2ccc(F)cc2)nn1
Reply | 97.1

----------
- Tested on: 454973-116-R2-J3-PDC complex spheroid viability
- PROTOCOL_SUMMARY: Anticancer human tumor 454973-116-R2-J3-PDC cell line growth inhibition [POLQ]; active = viability on the fitted dose curve at most 10% of control; inactive = the rest;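 note: spheroids exposed to drugs for seven days before measurement; percent viability relative to DMSO vehicle control wells taken as 100%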
- RECORDED_CONDITIONS: second compound 0.1 µM; first compound 0.1 µM
Answer with one of the outcomes y (active), n (inactive)

COc1cccc2c1C(=O)c1c(O)c3c(c(O)c1C2=O)CC(O)(C(=O)CO)CC3OC1CC(N)C(O)C(C)O1 (stereo not given) + Cc1cccc(N(C)C(=O)C2C(O)CCN2c2nc(C)cc(C(F)(F)F)c2C#N)c1 : n
Nc1ccn(C2OC(CO)C(O)C2(F)F)c(=O)n1 (stereo not given) + Cc1cccc(N(C)C(=O)C2C(O)CCN2c2nc(C)cc(C(F)(F)F)c2C#N)c1 : n
CCc1c2c(nc3ccc(O)cc13)-c1cc3c(c(=O)n1C2)COC(=O)[C@]3(O)CC + Nc1ccc(C#CCN(C(=O)Cc2ncc(C(F)(F)F)cc2C(F)(F)F)c2ccc(F)cc2)nn1 : y
COc1ccc([C@@H](O)c2cc(-c3ncnc4cc(N5CCOCC5)ccc34)c(F)cc2Cl)nn1 + COC1C(OC(N)=O)C(O)C(Oc2ccc3c(O)c(NC(=O)c4ccc(O)c(CC=C(C)C)c4)c(=O)oc3c2C)OC1(C)C : n
O=C(Nc1ccc(O)c(NS(=O)(=O)c2ccc(F)cc2)c1)c1ccc(-c2ccccc2)cc1 + Nc1ccc(C#CCN(C(=O)Cc2ncc(C(F)(F)F)cc2C(F)(F)F)c2ccc(F)cc2)nn1 : n

Ask | Test call, this compound: O=C(c1cc(Cc2n[nH]c(=O)c3ccccc23)ccc1F)N1CCN(C(=O)C2CC2)CC1 + Nc1ccc(C#CCN(C(=O)Cc2ncc(C(F)(F)F)cc2C(F)(F)F)c2ccc(F)cc2)nn1
Reply | n

Ask | Please do the same for CCc1cc2c(N3CCc4c(cc(Cn5ccnc5)cc4-c4cn(C)nc4C(F)(F)F)C3=O)ccnc2c(OC)n1 + COC1C(OC(N)=O)C(O)C(Oc2ccc3c(O)c(NC(=O)c4ccc(O)c(CC=C(C)C)c4)c(=O)oc3c2C)OC1(C)C as well.
Reply | n

Ask | What would you report for CC(C)n1c(=O)n(C)c2cnc3cc(F)c(-c4ccc(OCCCN5CCCCC5)nc4)cc3c21 + Cc1cccc(N(C)C(=O)C2C(O)CCN2c2nc(C)cc(C(F)(F)F)c2C#N)c1 ?
Reply | n

Ask | What would you report for COc1cccc(OCCCN)c1-c1cc(Nc2cnc(C#N)cn2)n[nH]1 + COC1C(OC(N)=O)C(O)C(Oc2ccc3c(O)c(NC(=O)c4ccc(O)c(CC=C(C)C)c4)c(=O)oc3c2C)OC1(C)C ?
Reply | y

Ask | Please answer likewise for CC1COCCN1c1cc(-c2ccnn2C)c2ccnc(-c3ccn[nH]3)c2n1 (stereo not given) + COC1C(OC(N)=O)C(O)C(Oc2ccc3c(O)c(NC(=O)c4ccc(O)c(CC=C(C)C)c4)c(=O)oc3c2C)OC1(C)C
Reply | n

----------
- Tested on: 454973-116-R2-J3-PDC complex spheroid viability
- PROTOCOL_SUMMARY: Anticancer human tumor 454973-116-R2-J3-PDC cell line growth inhibition [POLQ]; active means viability on the fitted dose curve at most 10% of control; inactive means the rest;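 note: spheroids exposed to drugs for seven days before measurement; percent viability relative to DMSO vehicle control wells taken as 100%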
- RECORDED_CONDITIONS: second compound 0.1 µM; first compound 0.1 µM
- Experimental: Multicellular complex tumor spheroid response to Polymerase (POL) inhibitors (novobiocin, ART-558, RP6685) in combination with a variety of drugs and investigational agents in selected tumor cell lines The POL inhibitors (novobiocin, ART-558, and RP6685) were evaluated both individually and in combination with standard of care and investigational anticancer small molecules within a complex spheroid model of solid tumors. . […]
# output must be one of true (1) = active, false (0) = inactive

C=CCn1c(=O)c2cnc(Nc3ccc(N4CCN(C)CC4)cc3)nc2n1-c1cccc(C(C)(C)O)n1 + Cc1cccc(N(C)C(=O)C2C(O)CCN2c2nc(C)cc(C(F)(F)F)c2C#N)c1 : false (0)
CC[C@@]1(O)C(=O)OCc2c1cc1n(c2=O)Cc2cc3c(CN(C)C)c(O)ccc3nc2-1 + Cc1cccc(N(C)C(=O)C2C(O)CCN2c2nc(C)cc(C(F)(F)F)c2C#N)c1 : false (0)
Cn1ncnc1[C@H]1c2n[nH]c(=O)c3cc(F)cc(c23)N[C@@H]1c1ccc(F)cc1 + COC1C(OC(N)=O)C(O)C(Oc2ccc3c(O)c(NC(=O)c4ccc(O)c(CC=C(C)C)c4)c(=O)oc3c2C)OC1(C)C : false (0)
CCc1cc2c(N3CCc4c(cc(Cn5ccnc5)cc4-c4cn(C)nc4C(F)(F)F)C3=O)ccnc2c(OC)n1 + Nc1ccc(C#CCN(C(=O)Cc2ncc(C(F)(F)F)cc2C(F)(F)F)c2ccc(F)cc2)nn1 : false (0)

Ask | Record lookup: outcome of this test for CCc1c2c(nc3ccc(O)cc13)-c1cc3c(c(=O)n1C2)COC(=O)[C@]3(O)CC + COC1C(OC(N)=O)C(O)C(Oc2ccc3c(O)c(NC(=O)c4ccc(O)c(CC=C(C)C)c4)c(=O)oc3c2C)OC1(C)C ?
Reply | true (1)

----------
- Tested on: 454973-116-R2-J3-PDC complex spheroid viability
- PROTOCOL_SUMMARY: Anticancer human tumor 454973-116-R2-J3-PDC cell line growth inhibition [POLQ];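 note: spheroids exposed to drugs for seven days before measurement; percent viability relative to DMSO vehicle control wells taken as 100%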
- RECORDED_CONDITIONS: second compound 0.316 µM; first compound 0.1 µM; stronger effect = lower value
- Protocol: Multicellular complex tumor spheroid response to Polymerase (POL) inhibitors (novobiocin, ART-558, RP6685) in combination with a variety of drugs and investigational agents in selected tumor cell lines The POL inhibitors (novobiocin, ART-558, and RP6685) were evaluated both individually and in combination with standard of care and investigational anticancer small molecules within a complex spheroid model of solid tumors. . […]
Please note: viability, T/C exactly at 90% is Criterion not met. Only values below 90% get Criterion met.

O=c1[nH]cc(F)c(=O)[nH]1 + COC1C(OC(N)=O)C(O)C(Oc2ccc3c(O)c(NC(=O)c4ccc(O)c(CC=C(C)C)c4)c(=O)oc3c2C)OC1(C)C : Criterion not met
CCc1c2c(nc3ccc(O)cc13)-c1cc3c(c(=O)n1C2)COC(=O)[C@]3(O)CC + COC1C(OC(N)=O)C(O)C(Oc2ccc3c(O)c(NC(=O)c4ccc(O)c(CC=C(C)C)c4)c(=O)oc3c2C)OC1(C)C : Criterion met
CCCS(=O)(=O)Nc1ccc(F)c(C(=O)c2c[nH]c3ncc(-c4ccc(Cl)cc4)cc23)c1F + Cc1cccc(N(C)C(=O)C2C(O)CCN2c2nc(C)cc(C(F)(F)F)c2C#N)c1 : Criterion not met

Ask | Field: below-cutoff. Rule: recorded viability, T/C strictly less than 90%. Subject: C#Cc1c(F)ccc2cc(O)cc(-c3ncc4c(N5CC6CCC(C5)N6)nc(OCC56CCCN5CC(F)C6)nc4c3F)c12 (stereo not given) + COC1C(OC(N)=O)C(O)C(Oc2ccc3c(O)c(NC(=O)c4ccc(O)c(CC=C(C)C)c4)c(=O)oc3c2C)OC1(C)C
Reply | Criterion met

Ask | Can you check CC1COCCN1c1cc(C2(S(C)(=N)=O)CC2)nc(-c2ccnc3[nH]ccc23)n1 (stereo not given) + Nc1ccc(C#CCN(C(=O)Cc2ncc(C(F)(F)F)cc2C(F)(F)F)c2ccc(F)cc2)nn1 next?
Reply | Criterion not met

Ask | Follow-up entry: CC(C)n1c(=O)n(C)c2cnc3cc(F)c(-c4ccc(OCCCN5CCCCC5)nc4)cc3c21 + Nc1ccc(C#CCN(C(=O)Cc2ncc(C(F)(F)F)cc2C(F)(F)F)c2ccc(F)cc2)nn1
Reply | Criterion not met

Ask | Another compound to check: CCc1cc2c(N3CCc4c(cc(Cn5ccnc5)cc4-c4cn(C)nc4C(F)(F)F)C3=O)cc(C)nc2c(OC)n1 + Cc1cccc(N(C)C(=O)C2C(O)CCN2c2nc(C)cc(C(F)(F)F)c2C#N)c1
Reply | Criterion met

Ask | Can you handle O=C(Nc1ccc(O)c(NS(=O)(=O)c2ccc(F)cc2)c1)c1ccc(-c2ccccc2)cc1 + Cc1cccc(N(C)C(=O)C2C(O)CCN2c2nc(C)cc(C(F)(F)F)c2C#N)c1 next?
Reply | Criterion not met

Ask | Likewise for C#Cc1c(F)ccc2cc(O)cc(-c3ncc4c(N5CC6CCC(C5)N6)nc(OCC56CCCN5CC(F)C6)nc4c3F)c12 (stereo not given) + Nc1ccc(C#CCN(C(=O)Cc2ncc(C(F)(F)F)cc2C(F)(F)F)c2ccc(F)cc2)nn1 ?
Reply | Criterion met

Hey, just so you know, these numbers are from PubChem BioAssay AID1963846.
